Assignment: determine reported pEC50 for the given compounds.
- System: Mobile stages of sea lice (pre-adults, adults of Lepeophtheirus salmonis)
- test_name: Adult sea lice contact assay
- condition_parameters: assessed after approximately 1 and 24 hours of continuous exposure, read-out: EC50 (sea lice inhibition, dead+damaged sea lice)
pEC50: −log10 of the molar value.

Reported pEC50 ( O=C(NC1CC(F)(F)C1)c1cc(NC(=O)C2C(c3cccc(C(F)(F)F)c3)C2(Cl)Cl)ccc1Cl (racemic) ) = 8.00 to 9.00

Reported pEC50 ( `CC1(NC(=O)c2cc(NC(=O)[C@H]3[C@H](c4cc(Cl)cc(Cl)c4)C3(Cl)Cl)ccc2Cl)CC1` ) = ≥ 9.00

Reported pEC50 ( O=C(NCC(F)(F)F)c1cc(NC(=O)C2C(c3cc(C(F)(F)F)cc(C(F)(F)F)c3)C2(Cl)Cl)ccc1Cl (stereo not drawn) ) = ≥ 9.00

* * *

- System: Mobile stages of sea lice (pre-adults, adults of Lepeophtheirus salmonis)
- test_name: Adult sea lice contact assay
- condition_parameters: assessed after approximately 1 and 24 hours of continuous exposure, read-out: EC50 (sea lice inhibition, dead+damaged sea lice)
- Method: Mobile stages of sea lice (i.e., pre-adults, adults of Lepeophtheirus salmonis) were exposed to seawater spiked with declining concentrations of a test compound (dissolved in a PEG sea-water mixture). Sea lice inhibition (% of dead+damaged sea lice) was assessed after approximately 1 and 24 hours of continuous exposure in comparison to a negative (solvent) control group.
measured_endpoint: EC50

Reported EC50 ( CC1(NC(=O)c2cc(NC(=O)[C@H]3[C@H](c4cc(Cl)cc(Cl)c4)C3(Cl)Cl)ccc2F)CC1 [Compound 1626] ) = 1 to 10 nM

Reported EC50 ( O=C(NC1CC1)c1cc(NC(=O)[C@H]2[C@H](c3cc(Cl)cc(Cl)c3)C2(Cl)Cl)cc(F)c1F [Compound 1618] ) = ≤ 1 nM

Reported EC50 ( N#Cc1cc(Cl)cc(C2C(C(=O)Nc3ccc(Cl)c(C(=O)NC4(C#N)CC4)c3)C2(Cl)Cl)c1 (racemic) [Compound 1532] ) = 10 to 25 nM

Reported EC50 ( O=C(NC1CC1)c1cc(NC(=O)[C@H]2[C@H](c3cc(Cl)cc(Cl)c3)C2(Cl)Cl)ccc1F [Compound 1632] ) = ≤ 1 nM

Reported EC50 ( N#CC1(NC(=O)c2cc(NC(=O)C3C(c4cc(C(F)(F)F)cc(C(F)(F)F)c4)C3(Cl)Cl)ccc2Cl)CC1 (stereo not shown) [Compound 1612] ) = 10 to 25 nM

Reported EC50 ( N#CC1(NC(=O)c2cc(NC(=O)C3C(c4ccc(C(F)F)c(Cl)c4)C3(Cl)Cl)ccc2Cl)CC1 (racemic) [Compound 1548] ) = 10 to 25 nM

Reported EC50 ( N#CC1(NC(=O)c2cc(NC(=O)C3C(c4cc(Cl)cc(Cl)c4)C3(Cl)Cl)ccc2F)CC1 (stereo not shown) [Compound 1605] ) = ≤ 1 nM

* * *

Assignment: determine reported EC50 for the given compounds.
- Test system: Mobile stages of sea lice (pre-adults, adults of Lepeophtheirus salmonis)
- test_name: Adult sea lice contact assay
- condition_parameters: assessed after approximately 1 and 24 hours of continuous exposure, read-out: EC50 (sea lice inhibition, dead+damaged sea lice)

Simply: `N#CC1(NC(=O)c2cc(NC(=O)[C@H]3[C@H](c4cc(Cl)c(Cl)c(Cl)c4)C3(Cl)Cl)ccc2Cl)CC1` , Mobile stages of sea lice (pre-adults, adults of Lepeophtheirus salmonis), EC50 = 1 to 10 nM

Simply: O=C(NC1(C(F)(F)F)CC1)c1cc(NC(=O)C2C(c3cc(F)c(F)c(F)c3)C2(Cl)Cl)ccc1Cl (stereo not shown) , Mobile stages of sea lice (pre-adults, adults of Lepeophtheirus salmonis), EC50 = 10 to 25 nM

Simply: `N#CC1(NC(=O)c2cc(NC(=O)[C@H]3[C@H](c4cc(F)c(F)c(F)c4)C3(Cl)Cl)ccc2F)CC1` , Mobile stages of sea lice (pre-adults, adults of Lepeophtheirus salmonis), EC50 = 1 to 10 nM

Simply: `N#CC1(NC(=O)c2cc(NC(=O)[C@H]3[C@H](c4cc(Cl)cc(Cl)c4)C3(Cl)Cl)ccc2Cl)CC1` , Mobile stages of sea lice (pre-adults, adults of Lepeophtheirus salmonis), EC50 = ≤ 1 nM

Simply: N#CC1(NC(=O)c2cc(NC(=O)C3C(c4cc(C(F)(F)F)cc(C(F)(F)F)c4)C3(Cl)Cl)cc(F)c2F)CC1 (stereo not shown) , Mobile stages of sea lice (pre-adults, adults of Lepeophtheirus salmonis), EC50 = 1 to 10 nM

Simply: `N#CC1(NC(=O)c2cc(NC(=O)[C@H]3[C@H](c4ccc(Cl)c(F)c4)C3(Cl)Cl)ccc2Cl)CC1` , Mobile stages of sea lice (pre-adults, adults of Lepeophtheirus salmonis), EC50 = 10 to 25 nM

Simply: N#CC1(NC(=O)c2cc(NC(=O)C3C(c4cc(F)cc(C(F)F)c4)C3(Cl)Cl)ccc2Cl)CC1 (racemic) , Mobile stages of sea lice (pre-adults, adults of Lepeophtheirus salmonis), EC50 = 1 to 10 nM
